Measured values drawn from PubChem BioAssay for this set.

- System: NADPH oxidase 4 (Homo sapiens)
- Assay overview: compounds shifting NOX4 Amplex Red fluorescence – cell-based, HEK293-NOX4, tetracycline-induced, NOX inhibitor project, primary screen (AID 1160)
- Reported conditions: HEK293-NOX4, Amplex Red H2O2 fluorescence, 45 min; higher = more signal, called active from +8 up or from −8 down
Please mark True if the recorded z-score is equal to or greater than 0.3, and False if it falls below.

Record smiles: C=CC[C@@]1(C(=O)NCc2ccccc2)N=C(c2ccc(OCCCO)cc2)O[C@@H]1c1ccccc1CN=[N+]=[N-]
Discrete label: False

I'd appreciate it if you could say whether COc1ccc([Si](C)(C)[C@@H]2[C@@H](CCn3cc([C@H](O)c4ccccc4)nn3)O[C@]3(C(=O)N(C)c4ccccc43)[C@H]2C)cc1 has z-score at least equal to 0.3.
True

Also check Cc1ccc([C@H]2C(C(=O)O)=C[C@@H](C(C)C)N2S(=O)(=O)c2ccc(C)cc2)cc1
False

# iterate: C=CCOC(=O)[C@H]1[C@@H]2C(=O)O[C@@H](c3ccccc3)[C@@H](c3ccccc3)N2[C@@H](c2ccc(OCCOC(=O)[C@H]3C[C@H]4C(=O)N[C@@H](CCCC[N+](C)(C)C)C(=O)N4[C@H]3c3ccc(O)cc3)cc2)[C@]12C(=O)Nc1ccccc12
True

What do you have for COC(=O)[C@@]1(Cc2ccc(F)cc2)[C@H]2c3cc(C(=O)N4CCCC4)n(Cc4ccc(Cl)c(C(F)(F)F)c4)c3C[C@H]2CN1C(=O)c1ccccc1 ?
True

Next up: O=C1C[C@@](C(=O)O)(c2ccc([N+](=O)[O-])cc2)[C@@H](c2ccc(CO)cc2I)N1C1CCCCC1
False

---

- System: Pro-neuregulin-1, membrane-bound isoform (Homo sapiens) (UniProt Q02297)
- Sequence (Q02297 whole entry, looked up, canonical isoform): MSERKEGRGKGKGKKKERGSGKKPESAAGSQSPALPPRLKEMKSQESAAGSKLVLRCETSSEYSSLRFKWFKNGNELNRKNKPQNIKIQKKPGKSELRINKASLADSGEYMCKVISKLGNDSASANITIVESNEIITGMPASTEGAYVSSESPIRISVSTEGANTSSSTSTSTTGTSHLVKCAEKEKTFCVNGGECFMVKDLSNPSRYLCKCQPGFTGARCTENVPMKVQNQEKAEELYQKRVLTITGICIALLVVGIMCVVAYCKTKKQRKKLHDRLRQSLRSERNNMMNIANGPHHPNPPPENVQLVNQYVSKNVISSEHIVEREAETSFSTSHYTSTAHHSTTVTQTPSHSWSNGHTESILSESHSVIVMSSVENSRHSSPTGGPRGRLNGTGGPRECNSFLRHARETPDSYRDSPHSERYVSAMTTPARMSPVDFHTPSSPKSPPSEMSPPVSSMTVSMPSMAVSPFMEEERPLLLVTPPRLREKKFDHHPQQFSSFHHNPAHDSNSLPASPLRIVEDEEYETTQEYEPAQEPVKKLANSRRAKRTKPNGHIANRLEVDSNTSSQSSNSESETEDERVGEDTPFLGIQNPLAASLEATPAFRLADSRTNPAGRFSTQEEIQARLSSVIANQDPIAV
- Assay overview: small molecules binding neuregulin-1 protein – biochemical, small-molecule microarray, fluorescence 635/667, psychiatric disease protein project, primary screen (AID 1075);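 also: score combines 667 nm spot fluorescence with signal to noise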
- Reported conditions: NRG1 binding, 635 nm fluorescence, higher = more signal
Measured composite z-score by item
Give only the figure.

Solved cases below.
Record smiles: Cc1ccc(S[C@]2(C(=O)NCC(F)(F)F)CC(=O)N(C3Cc4ccccc4C3)[C@@H]2c2ccc(CO)cc2I)cc1
composite z-score: 0.569

Record smiles: COCCOC(=O)N1C(=O)[C@@]2(c3ccccc31)[C@H](C(=O)N1CCCCCCC1)[C@H]1C(=O)O[C@H](c3ccccc3)[C@H](c3ccccc3)N1[C@@H]2c1ccccc1OCCO
composite z-score: 1.84

Record smiles: NC(=O)[C@@]1(CCS(=O)(=O)c2ccccc2)N=C(c2ccc(OCCCO)cc2)O[C@H]1c1ccccc1
composite z-score: 0.0342

Record smiles: [N-]=[N+]=NCc1ccccc1[C@@H]1OC(c2ccc(OCCCO)cc2)=N[C@]1(Cc1ccccc1)C(=O)O
composite z-score: 1.57

Record smiles: C[N+](C)(C)CCCC[C@@H]1NC(=O)[C@H]2C[C@@H](C(=O)O)[C@@H](c3cccc(OCCO)c3)N2C1=O
composite z-score: 2.81

Record smiles: COc1ccc(C#Cc2ccc3c(c2)[C@]2(C(=O)N3)[C@H](C(=O)N3CCc4cc(OC)c(OC)cc4C3)[C@H]3C(=O)O[C@H](c4ccccc4)[C@H](c4ccccc4)N3[C@@H]2c2ccc(OCCO)cc2)cc1
composite z-score: 0.213

As a next step, examine the compound that follows.
Suppose we examine the compound CC(=O)NCCCC[C@@H]1NC(=O)[C@@H]2C[C@H](C(=O)NCCCCCC[N+](C)(C)C)[C@H](c3cccc(OCCO)c3)N2C1=O ; what composite z-score value has been reported?
1.52

---

The molecules listed here are annotated with their z-score.
- Assay overview: viability profiling in RPMI8226 myeloma cells – cell-based, resazurin fluorescence, basal, 24 h, PK04 Diversity Set, profiling panel (AID 1180);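 also: RPMI8826 multiple myeloma cell line at 5000 cells per well; test concentration not given here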
- Reported conditions: higher = more signal
Simply state the number, no unit and no words.

Example entries begin here.
Record smiles: C=C(COC)C(=O)CC[C@@H](OC(=O)c1ccccc1-c1ccccc1C(=O)O)c1ccc(CO)o1
z-score: 0.62
//
Record smiles: COC(=O)c1c(CC[C@@H](CO)NC(=O)Nc2ncn[nH]2)oc(C(=O)Cc2ccccc2)c1C(=O)OC
z-score: 0.36
//
Record smiles: Cc1ccc(N2C(=O)c3ccccc3[C@@H](C(=O)NCC(C)C)[C@@H]2c2ccc(CO)cc2)nc1
z-score: 0.68

Field: next molecule
Entry under review: NC(=O)NCC#Cc1ccc2c(c1)[C@]1(C(=O)N2)[C@H](c2ccc(O)cc2)N2[C@H](c3ccccc3)[C@H](c3ccccc3)OC(=O)[C@H]2[C@@H]1C(=O)N1CCN(c2ncccn2)CC1 . Reported z-score?
1.24

---

- System: Alpha-bungarotoxin (Bungarus multicinctus) (UniProt P60615)
- Sequence (P60615 whole entry, looked up): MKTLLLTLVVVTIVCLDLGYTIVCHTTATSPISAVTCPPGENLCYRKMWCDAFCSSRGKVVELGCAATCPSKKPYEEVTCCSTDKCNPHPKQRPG
- Assay overview: compounds binding labelled alpha-BTX control protein – biochemical, small-molecule microarray, Alexa647 label, 635/667 nm fluorescence, artefact control for SMM control protein annotation, profiling panel (AID 1117)
- Reported conditions: alpha-BTX-A647 binding fluorescence, higher = more signal
Property label: composite z-score
Form rule: numeric answer, no unit written next to it.

Compound: O=C1OCC=C[C@H]2OC34C=CCN(c5ccc(Cl)cc5)C(=O)[C@H]3N(CCCO)C(=O)[C@@H]4[C@@H]12 (some centres undefined)
System: Alpha-bungarotoxin (Bungarus multicinctus) (UniProt P60615)
composite z-score: -0.43
//
Compound: C/C=C/[C@H](CCn1cc([C@H](O)c2ccccc2)nn1)[Si](C)(C)c1ccc(OC)cc1
System: Alpha-bungarotoxin (Bungarus multicinctus) (UniProt P60615)
composite z-score: -0.977
//
Compound: Cc1ccc(N2C(=O)c3ccccc3[C@@H](C(=O)NCC(C)C)[C@@H]2c2ccc(CO)cc2)nc1
System: Alpha-bungarotoxin (Bungarus multicinctus) (UniProt P60615)
composite z-score: -0.688

Any idea what its composite z-score is? The compound is C=C(CCCC)/C(=C/C[C@H](OC(C)=O)c1ccc(CO)o1)c1cc(C(=O)OC)ccc1OC
1.44

---

- Assay overview: optical density change of DRC41 E. coli – strain DRC41, OD650, 24 h, E. coli filamentation project, primary screen (AID 1093);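 also: MC1000 strain lacking acrAB efflux and sulA so SOS filamentation is blocked; test concentration not given here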
- Reported conditions: E. coli DRC41 growth, higher = more signal, called active from +8 up or from −8 down
Classification field: enter criterion met for z-score values not below -0.4, criterion not met for values below it.

# count of solved cases: 4
Compound: NC(=O)NCC#Cc1ccc2c(c1)[C@]1(C(=O)N2)[C@H](c2ccccc2OCCO)N2[C@H](c3ccccc3)[C@H](c3ccccc3)OC(=O)[C@H]2[C@@H]1C(=O)N1CCCCCCC1
Discrete label: criterion met
--
Compound: C=CCC(OC(C)=O)[C@@H]1[C@@H](N(Cc2cc3ccccc3o2)C(=O)c2cccc3ccccc23)c2cc(OCCCO)ccc2N1C(=O)Cc1ccc2ccccc2c1 (some centres undefined)
Discrete label: criterion met
--
Compound: O=C1C2C=CC(C(O)c3ccccn3)N(Nc3ccccc3F)C2C(=O)N1c1ccccc1 (centres undefined)
Discrete label: criterion not met
--
Compound: O=C1C2C=CC(C(O)c3ccc(Br)cc3)N(n3cnnc3)C2C(=O)N1Cc1ccccc1 (centres undefined)
Discrete label: criterion not met

Is z-score at least -0.4? Consider C=C(CCCC)/C(=C/C[C@H](OC(C)=O)c1ccc(CO)o1)c1cc(C(=O)OC)ccc1OC
criterion met

Moving on to the next compound: COCCOC(=O)N1C(=O)[C@@]2(c3cc(C#CCC(C(=O)OC)C(=O)OC)ccc31)[C@H](c1ccccc1OCCO)N1[C@H](c3ccccc3)[C@H](c3ccccc3)OC(=O)[C@H]1[C@@H]2C(=O)Nc1nc2ccccc2s1
criterion met

Also, COC(=O)[C@@]1(Cc2ccccc2)[C@H]2c3cc(C(=O)N(C)C)n(Cc4cc(F)c(F)c(F)c4)c3C[C@H]2CN1C(=O)c1ccccc1 please.
criterion not met

What about C=C(CCCC)C(=O)CC[C@H](OC(=O)c1ccccc1-c1ccccc1C(=O)O)c1ccc(CO)o1 ?
criterion met

Another compound to look at: COc1ccccc1CN1C(=O)c2ccccc2[C@](Cc2ccccc2I)(C(=O)NC2CC2)[C@@H]1c1ccc(CO)cc1
criterion met

Try CCN(CC)c1ccc(N2CC=CC34O[C@@H]5/C=C\CCC(C)OC(=O)C5[C@H]3C(=O)N(CCCCCCO)[C@@H]4C2=O)cc1 (some centres undefined) next.
criterion met

Okay, and O=C1c2ccccc2[C@](Cc2ccccc2I)(C(=O)O)[C@H](c2ccc(CO)cc2)N1Cc1ccccc1C(F)(F)F ?
criterion met

What would you report for CCCC[C@@H]1C[C@H]1[C@@H](NC(=O)c1ccco1)c1ccccc1 ?
criterion not met

Now try NC(=O)[C@]1(Cc2ccccc2)N=C(c2ccc(OCCCO)cc2)O[C@@H]1c1ccccc1 .
criterion met

---

- Assay overview: FRG1 expression reporter modulators in myotubes – cell-based, C2C12 myotubes, firefly/Renilla luciferase, luminescence, FRG1 inhibition for FSHD, primary screen (AID 1084)
- Reported conditions: FRG1 promoter luciferase, higher = more signal, called active from +8 up or from −8 down
Here, each record is paired with measured z-score data.
Reply with just the number.

May I ask what z-score has been recorded for [N-]=[N+]=Nc1ccccc1[C@@H]1OC(c2ccc(OCCCO)cc2)=N[C@]1(CCS(=O)(=O)c1ccccc1)C(=O)N1CCCCC1 ?
-1.72

Now give it for CCOC1=C2C(c3ccc(C)cc3)N(S(=O)(=O)c3ccc(C)cc3)CC2n2c(=O)n(-c3ccccc3)c(=O)n2C1 (centres undefined) too.
-3.93

// same read-out, input: CCCNC(=O)[C@@]1(c2ccc([N+](=O)[O-])cc2)CC(=O)N(CC23CC4CC(CC(C4)C2)C3)[C@@H]1c1ccc(CO)cc1I
-2.05

Next compound: CN1C(=O)C2C(C1=O)C1C=C(c3ccc(CO)cc3)C2C(C2CC2)N1Cc1sc2ccccc2c1Cl (centres undefined)
-2.04
